Values were extracted from patent US20240287046A1.

test system: ASPC-1 tumor-bearing mice; experiment: Biodistribution of radionuclide labeled complexes in ASPC-1 tumor-bearing mice; type: in vivo, BALB/c nude mice; settings: Kidney, 4 h
READOUT KIND: % ID/g (4 h) Kidney
Kindly report the value followed by its unit.

COc1cccc(OC)c1-c1cc(C(=O)NC2(C(=O)O)C3CC4CC(C3)CC2C4)nn1-c1ccc(N(C)CCCN(C)CCCN(C)C(=O)CN2CCN(CC(=O)[O-])CCN(CC(=O)[O-])CCN(CC(=O)[O-])CC2)cc1C(C)C.[177Lu+3] (stereo not shown) [^177Lu-I-1] : 3.66 ± 2.51 % ID/g
COc1cccc(OC)c1-c1cc(C(=O)NC2(C(=O)O)C3CC4CC(C3)CC2C4)nn1-c1ccc(NC(=O)CCCN(C)CCCN(C)C(=O)CN2CCN(CC(=O)[O-])CCN(CC(=O)[O-])CCN(CC(=O)[O-])CC2)cc1C(C)C.[177Lu+3] (stereo not shown) [^177Lu-I-5] : 4.57 ± 2.28 % ID/g

For record COc1cccc(OC)c1-c1cc(C(=O)NC2(C(=O)O)C3CC4CC(C3)CC2C4)nn1-c1ccc(NCCOCCOCCNC(=O)CN2CCN(CC(=O)[O-])CCN(CC(=O)[O-])CCN(CC(=O)[O-])CC2)cc1C(C)C.[177Lu+3] (stereo not shown) [^177Lu-I-10] the listed % ID/g (4 h) Kidney is 3.02 ± 0.39 % ID/g

For record COc1cccc(OC)c1-c1cc(C(=O)NC2(C(=O)O)C3CC4CC(C3)CC2C4)nn1-c1ccc(C(=O)N(C)CCCN(C)CCCN(C)C(=O)CN2CCN(CC(=O)[O-])CCN(CC(=O)[O-])CCN(CC(=O)[O-])CC2)cc1C(C)C.[177Lu+3] (stereo not shown) [^177Lu-C-2, reference compound] the listed % ID/g (4 h) Kidney is 2.6 ± 0.93 % ID/g
